These data points were gathered from patent US20260151499A1.

assayed.system: T1, CD73 protein (UniProt P21589 27-549)
T1 construct: also called CD73-biotin
T1 sequence (looked up): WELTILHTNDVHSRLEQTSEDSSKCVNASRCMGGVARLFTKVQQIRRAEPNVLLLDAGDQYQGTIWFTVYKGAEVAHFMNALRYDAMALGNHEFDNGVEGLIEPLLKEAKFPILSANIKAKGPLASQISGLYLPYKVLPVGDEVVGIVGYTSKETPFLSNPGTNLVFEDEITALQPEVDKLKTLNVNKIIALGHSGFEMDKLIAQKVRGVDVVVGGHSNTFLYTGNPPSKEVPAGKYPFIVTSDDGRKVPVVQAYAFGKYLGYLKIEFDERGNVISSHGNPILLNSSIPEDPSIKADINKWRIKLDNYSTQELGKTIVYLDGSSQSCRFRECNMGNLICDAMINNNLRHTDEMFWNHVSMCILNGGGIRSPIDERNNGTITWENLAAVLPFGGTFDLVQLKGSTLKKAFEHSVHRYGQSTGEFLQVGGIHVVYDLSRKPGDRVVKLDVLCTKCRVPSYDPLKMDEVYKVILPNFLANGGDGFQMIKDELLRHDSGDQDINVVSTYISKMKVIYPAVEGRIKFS
assay.protocol: Octet BLI; Ab-BN3 on protein A sensors, CD73 in solution
quantity.kind: koff (s⁻¹)

[[record]]
binder = "10A7-BN3 (antibody, V domains shown, position marked * in QQ*YTTPPT (light chain residue 91): unnatural amino acid (UAA) with azide, conjugated to BN3 (PSB12379-PEG3-DBCO), also called 10A7 Ab-BN3) VH: EVQLVESGGGLVQPGGSLRLSCAASGFAFSSYSMSWVRQAPGKGLEWIGSIYYSGSTYYNPSLKSRVTISADTSKNTAYLQMNSLRAEDTAVYYCARNSGFETLDYWGQGTLVTVSS VL: DIQMTQSPSSLSASVGDRVTITCRASQGISRWLAWYQQKPGKAPNLLIYGASTLQSGVPPRFSGSRSGTDFTLTISSLQPEDFATYYCQQXYTTPPTFGQGTKLEI"
measured_result = 0.000191

[[record]]
binder = "ABN3-2B-BN3 (antibody, V domains shown, not fully specified; position marked * in QQ*YTTPPT (light chain residue 91): unnatural amino acid (UAA) with azide, conjugated to BN3 (PSB12379-PEG3-DBCO), also called ABN3-2B Ab-BN3; ABN-2B) VH: EVQLVESGGGLVQPGGSLRLSCAASGFTFSSYWMHWVRQAPGKGLEWVSAVSGSGDSTYYADSVKGRFTISADTSKNTAYLQMNSLRAEDTAVYYCAREGDWGLDYWGQGTLVTVSS VL: DIQMTQSPSSLSASVGDRVTITCRASQGINNYLAWYQQKPGKAPKLLIYDASNLETGVPSRFSGSRSGTDFTLTISSLQPEDFATYYCQQXYTTPPTFGQGTKLEI"
measured_result = 0.000582

[[record]]
binder = "10D8-BN3 (antibody, V domains shown, position marked * in QQ*YTTPPT (light chain residue 91): unnatural amino acid (UAA) with azide, conjugated to BN3 (PSB12379-PEG3-DBCO), also called 10D8 Ab-BN3) VH: EVQLVESGGGLVQPGGSLRLSCAASGFTFSTYAIHWVRQAPGKGLEWVSSISGSGGGGGTYYADSVKGRFTISADTSKNTAYLQMNSLRAEDTAVYYCARDRGFLQFDYWGQGTLVTVSS VL: DIQMTQSPSSLSASVGDRVTITCRASQSISSWLAWYQQKPGKAPKLLIYDVSNVQTGVPSRFSGSRSGTDFTLTISSLQPEDFATYYCQQXYTTPPTFGQGTKLEI"
measured_result = 0.000275

